ATTRIBUTE MEASURED: melting point

// below: answered compounds
>  <COMPOUND>
O=C(Nc1ccc(F)cc1)c1cccc([N+](=O)[O-])c1

>  <melting point>
167 to 168 °C

$$$$
>  <COMPOUND>
CCCCCCCCCCCCCCCCCCc1cc(OC(=O)CC)ccc1O

>  <melting point>
75 to 78 °C

$$$$
>  <COMPOUND>
COc1ccc2c(c1)C1Cc3ccccc3C1N2C (centres undefined)

>  <melting point>
72 °C

$$$$
>  <COMPOUND>
O=C(O)COC(=O)C=Cc1ccccc1

>  <melting point>
116 to 121 °C

$$$$

Shifting focus to the compound that follows.
Lab book: melting point of CCCCC(=O)Cc1ccc(C(=O)Nc2ccc3cc(CN4CCCC4)cnc3c2C)cc1 noted as 156 °C

----------
Reported melting point values for a set of compounds

// below: answered compounds
>  <COMPOUND>
Cc1nc(NC(=O)c2cnn3c(C(F)F)cc(-c4ccc(C(F)(F)F)cc4)nc23)sc1S(=O)(=O)N(CCO)CCO

>  <melting point>
191 °C

$$$$
>  <COMPOUND>
Cc1c(Cl)ccc2c1N=C(c1ccncc1)OC2c1ccc(Br)cc1 (stereo unspecified)

>  <melting point>
169 to 170 °C

$$$$
>  <COMPOUND>
O=C1c2cc(Cl)ccc2CN2CCC(=NO)C12 (stereo unspecified)

>  <melting point>
130 to 136 °C

$$$$
>  <COMPOUND>
CCOC(C#N)Cc1ccc(O)c(N)c1 (stereo unspecified)

>  <melting point>
114 to 115 °C

$$$$
>  <COMPOUND>
Nc1ccc(C=C2SC(=O)NC2=O)cc1

>  <melting point>
265 to 270 °C

$$$$
>  <COMPOUND>
CCCNCCC1Cc2ccc(-c3ccc(=O)[nH]n3)cc2C1 (stereo unspecified)

>  <melting point>
150 to 151 °C

$$$$
>  <COMPOUND>
CCOC(=O)c1c(NC(=O)C(F)(F)F)c2cccnc2n(CC)c1=O

>  <melting point>
195 to 197 °C

$$$$
>  <COMPOUND>
c1ccc2oc(-c3nc(COc4ccc(CCCn5ccnc5)cc4)co3)cc2c1

>  <melting point>
122 to 123 °C

$$$$

Lab book: melting point of CCCn1c(=O)c2[nH]c(C3CC4CCC3C4)nc2n(CCC)c1=O (stereo unspecified) noted as 136 to 138 °C

Lab book: melting point of COC(=O)C1CCC2(C)C(=CC(O)C3C2CCC2(C)C(O)CCC32)C1 (stereo unspecified) noted as 150 to 152 °C

Lab book: melting point of CC(C)(C)NC(=O)Nc1nc2nc(N)ncc2cc1-c1c(Cl)ccc(Cl)c1Cl noted as 329 to 330 °C

Lab book: melting point of Cc1ccc(Sc2ccc(C(=O)O)cc2)cc1 noted as 105 to 107 °C

Lab book: melting point of O=C(Nc1ccc2ccc(Cl)nc2n1)c1ccncc1 noted as 220 °C

----------
ATTRIBUTE MEASURED: melting point

>  <MOLECULE>
CN(CCc1ccccc1)S(=O)(=O)CC(=O)NO

>  <melting point>
149 to 151 °C

$$$$
>  <MOLECULE>
CN(c1ncccc1[N+](=O)[O-])C1CCNCC1

>  <melting point>
116 to 117 °C

$$$$
>  <MOLECULE>
COc1cc2ncnc(Nc3nccc4ccccc34)c2cc1OC

>  <melting point>
198 to 199 °C

$$$$
>  <MOLECULE>
COc1cccc(C2CCCN(C(=O)Cc3cc4ccccc4o3)C2)c1 (stereo not given)

>  <melting point>
175 to 176 °C

$$$$

Shifting focus to the molecule that follows.
Lab book: melting point of N#CCN1C(=O)COc2ccc([N+](=O)[O-])cc21 noted as 173 °C

----------
ATTRIBUTE MEASURED: melting point (°C)
Give your result in °C as a bare value.

>  <MOLECULE>
O=C(CCCCCS(=O)c1ccc(Cl)cc1)NO (stereo not drawn)

>  <UNIT ABBREVIATION>
°C

>  <melting point>
125

$$$$

Shifting focus to the molecule that follows.
Lab book: melting point of CCCN(C(C)C)C1COc2cccc(C(=O)NC(C)C)c2C1 (stereo not drawn) noted as 124

----------
ATTRIBUTE MEASURED: melting point

>  <COMPOUND>
O=C(O)COc1ccc2c(c1)CC(NS(=O)(=O)c1ccc(Cl)cc1)C2 (stereo unspecified)

>  <melting point>
170 to 172 °C

$$$$
>  <COMPOUND>
O=C(C=C1CCCN1)c1ccccc1

>  <melting point>
115 to 116 °C

$$$$

Lab book: melting point of CC(C)(C)OC(=O)Nc1ccc2ccccc2c1Br noted as 90 to 91 °C

Lab book: melting point of Cc1ccc(-c2c(NS(=O)(=O)c3ccc(C(C)(C)C)cc3)ncnc2OCCOc2ccc(NC(=O)c3ccccc3)cn2)cc1 noted as 173 to 174 °C

Lab book: melting point of O=C(CCCCCCCCC(=O)N(CCO)CCO)N(CCO)CCO noted as 87 to 98 °C

Lab book: melting point of CC(C)n1cnc2c(Nc3cccc(Cl)c3)nc(NCCN)nc21 noted as 55 to 56 °C

----------
ATTRIBUTE MEASURED: melting point

Lab book: melting point of N#CNC(=N)NCCN1CCC(C2(c3ccc(F)cc3)OCCO2)CC1 noted as 161 to 163 °C

Lab book: melting point of O=C(O)c1ccc2c(c1)CCc1ccc(O)cc1C2=O noted as 256 to 257 °C

Lab book: melting point of Cn1cnnc1C(O)(c1ccc(Cl)cc1)c1ccc2[nH]c(=O)cc(-c3cccc(Cl)c3)c2c1 (stereo not drawn) noted as > 260 °C

----------
Reported melting point values for a set of compounds

// below: answered compounds
>  <COMPOUND>
CN(C)Cc1nnc(CN(C)C)n1-c1ccc(Cl)cc1C(=O)c1ccccc1

>  <MEAS VALUE>
148 to 152 °C

$$$$
>  <COMPOUND>
C=CCSc1nnc(OCC)c2c1CCCC2

>  <MEAS VALUE>
39 to 41 °C

$$$$
>  <COMPOUND>
O=[N+]([O-])c1ccc2[nH]c(/C=C/c3ccncc3)nc2c1

>  <MEAS VALUE>
> 280 °C

$$$$

Lab book: melting point of CN1CCC(c2c[nH]c3ccc(N)cc23)C(F)C1 (stereo not given) noted as 105 to 107 °C

Lab book: melting point of CCNc1cc(-c2c[nH]c(S)n2)ccn1 noted as > 260 °C

----------
Reported melting point values for a set of compounds

// below: answered compounds
>  <COMPOUND>
ON=C1CCc2cc(Cl)ccc21

>  <MEAS VALUE>
181 to 182 °C

$$$$
>  <COMPOUND>
NS(=O)(=O)c1ccc(NN=C2C(=O)Nc3ccc(C(=O)NCCN4CCOCC4)cc32)cc1

>  <MEAS VALUE>
210 to 212 °C

$$$$
>  <COMPOUND>
O=C(O)COc1ccc(CC(Cc2ccccc2)NS(=O)(=O)c2ccc(Cl)cc2)cc1 (stereo not given)

>  <MEAS VALUE>
150 to 151 °C

$$$$
>  <COMPOUND>
O=C(NCc1ccncc1)c1ccnc(N2CCN(CC3CC3)C2=O)c1

>  <MEAS VALUE>
160 to 162 °C

$$$$

Shifting focus to the compound that follows.
Lab book: melting point of COc1ccc(Cl)n2nc(S(=O)(=O)Cl)nc12 noted as 149 to 151 °C

----------
Reported melting point values for a set of molecules

// below: answered molecules
>  <MOLECULE>
CCc1cc(Br)c2c(c1)NC(=O)C2=O

>  <melting point>
219 to 220 °C

$$$$
>  <MOLECULE>
O=c1cc(O)cc(-c2cccc(Cl)c2)o1

>  <melting point>
254 to 256 °C

$$$$
>  <MOLECULE>
CCOC(=O)/C=C/c1c(-c2ccccc2)c2c3ccccc3ccn2c1C(C)C

>  <melting point>
145 to 146 °C

$$$$
>  <MOLECULE>
Cc1ccc(-c2ncc(C)cn2)cc1

>  <melting point>
122 to 123 °C

$$$$
>  <MOLECULE>
CC(C)(C)OC(=O)N1CCC[C@@H]1C=C(Br)Br

>  <melting point>
55 to 60 °C

$$$$
>  <MOLECULE>
Cc1nnc(-c2ccc3scc(-c4ccc(S(C)(=O)=O)cc4)c3c2)o1

>  <melting point>
231 to 232 °C

$$$$

Shifting focus to the molecule that follows.
Lab book: melting point of Nc1nc(Nc2ccccc2)sc1C=O noted as 212 to 213 °C

----------
Reported melting point values for a set of compounds

// below: answered compounds
>  <COMPOUND>
O=C(O)c1nn(-c2ccc(Cl)cc2Cl)c2c1CCc1cc(C(F)(F)F)ccc1-2

>  <melting point>
245 °C

$$$$
>  <COMPOUND>
COc1nc(I)cc(C(O)Cc2ccccc2)c1C (centres undefined)

>  <melting point>
69 to 70 °C

$$$$
>  <COMPOUND>
O=NN1CCN(Cc2c[nH]c3ccccc23)CC1

>  <melting point>
116 to 118 °C

$$$$

Shifting focus to the compound that follows.
Lab book: melting point of O=c1[nH]c2c(o1)-c1ccncc1CC2 noted as 290 to 292 °C
